// reported Ratio IC50 for each item listed
System: HL-60
Measurement description: Ratio of IC50 for human HL60 cells to IC50 for human HL60/MX2 cells
Type: functional
The reply should be a number, written without any unit.

In the examples that follow, each entry is paired with its recorded Ratio IC50.
INSERT INTO measurements (compound, parameter, recorded_measurement) VALUES
  ('CCOC(=O)CC1C(C(=O)OCC)=C(N)Oc2cc(-c3ccccc3)ccc21 (racemic)', 'Ratio IC50', 2.47),
  ('CCOC(=O)CC1C(C(=O)OCC)=C(N)Oc2ccc(-c3cccc4c3-c3ccccc3-4)cc21 (racemic)', 'Ratio IC50', 2.61),
  ('CCCc1ccc2c(c1)C(CC(=O)OCC)C(C(=O)OCC)=C(N)O2 (racemic)', 'Ratio IC50', 1.7);

Prompt: Requested read-out: Ratio IC50. Entry: C=CCOC(=O)CC1C(C(=O)OCC=C)=C(N)Oc2ccc(-c3cc(OC)cc(OC)c3)cc21 (racemic)
Completion: 1.62

---

Tested on: HL-60
Measurement description: Ratio of IC50 for human HL60 cells to IC50 for human HL60/MX2 cells
Format: functional
Parameter: Ratio IC50
The reply should be a number, written without any unit.

In the examples that follow, each entry is paired with its recorded Ratio IC50.
INSERT INTO assay_data (compound, parameter, recorded_measurement) VALUES
  ('CCOC(=O)CC1C(C(=O)OCC)=C(N)Oc2ccc(-c3cc(C)cc(C)c3)cc21 (racemic)', 'Ratio IC50', 2.97),
  ('CCOC(=O)CC1C(C(=O)OCC)=C(N(C(C)=O)C(C)=O)Oc2ccc(-c3ccccc3)cc21 (racemic)', 'Ratio IC50', 1.29),
  ('CCOC(=O)CC1C(C(=O)OCC)=C(N)Oc2ccc(-c3cc(O)cc(O)c3)cc21 (racemic)', 'Ratio IC50', 5.93);

Please turn your attention to the following entry.
Prompt: Requested read-out: Ratio IC50. Entry: CCOC(=O)C1=C(N)Oc2ccc(-c3ccccc3)cc2C1C(=O)N1CCNCC1 (racemic)
Completion: 1

---

System: HL-60
Measurement description: Ratio of IC50 for human HL60 cells to IC50 for human HL60/MX2 cells
Assay type: functional
// reported Ratio IC50 for each item listed
The reply should be a number, written without any unit.

In the examples that follow, each entry is paired with its recorded Ratio IC50.
INSERT INTO measurements (molecule, target, parameter, recorded_measurement) VALUES
  ('CCOC(=O)CC1C(C(=O)OCC)=C(N)Oc2ccc(-c3ccc(C(C)(C)C)cc3)cc21 (racemic)', 'HL-60', 'Ratio IC50', 0.98),
  ('CCOC(=O)CC1C(C(=O)OCC)=C(C)Oc2ccc(-c3cc(OC)cc(OC)c3)cc21 (racemic)', 'HL-60', 'Ratio IC50', 6.66),
  ('CCOC(=O)CC1C(C(=O)OCC)=C(NC(C)=O)Oc2ccc(-c3ccccc3)cc21 (racemic)', 'HL-60', 'Ratio IC50', 1.77),
  ('CCOC(=O)CC1C(C(=O)OCC)=C(N)Oc2c(-c3ccccc3)cccc21 (racemic)', 'HL-60', 'Ratio IC50', 1.97),
  ('CCOC(=O)CC1C(C(=O)OCC)=C(N)Oc2ccc(-c3cc(OC)c(OC)c(OC)c3)cc21 (racemic)', 'HL-60', 'Ratio IC50', 1.19);

Prompt: What is its Ratio IC50 for HL-60? Entry: CCOC(=O)CC1C(C(=O)OCC)=C(N)Oc2ccc(-c3cc(O)cc(OC)c3)cc21 (racemic)
Completion: 7.1

Prompt: Continue with CCOC(=O)CC1C(C(=O)OCC)=C(N)Oc2ccc(-c3cccc(OC)c3)cc21 (racemic)
Completion: 4.02

Prompt: Continue with CC(C)OC(=O)C1=C(N)Oc2ccc(-c3ccccc3)cc2C1C(=O)OC(C)C (racemic)
Completion: 3.37

Prompt: Continue with CCOC(=O)CC1C(C(=O)OCC)=C(N)Oc2ccc(-c3cc(OC)cc(OC)c3)cc21 (single isomer, unassigned; (-))
Completion: 3.2

Prompt: Continue with CCOC(=O)CC1C(C(=O)OCC)=C(N)Oc2ccc(Br)cc21 (racemic)
Completion: 2.1

Prompt: Continue with CCOC(=O)CC1C(C(=O)OCC)=C(N)Oc2ccc(-c3ccccc3)cc21 (racemic)
Completion: 3.93

Prompt: Continue with CCOC(=O)CC1C(C(=O)OCC)=C(N)Oc2ccc(-c3ccc4c(c3)OCO4)cc21 (racemic)
Completion: 3.82

Prompt: Continue with CCOC(=O)CC1C(C(=O)OCC)=C(N)Oc2ccc(-c3ccc4c(c3)-c3ccccc3-4)cc21 (racemic)
Completion: 3.17

Prompt: Continue with C#CCOC(=O)CC1C(C(=O)OCC)=C(N)Oc2ccc(-c3cc(OC)cc(OC)c3)cc21 (racemic)
Completion: 2.54

Prompt: Continue with CCOC(=O)CC1C(C(=O)OCC)=C(N)Oc2ccc(-c3cccc([N+](=O)[O-])c3)cc21 (racemic)
Completion: 2.92

Prompt: Continue with CCOC(=O)CC1C(C(=O)OCC)=C(N)Oc2ccc(-c3cc(C(F)(F)F)cc(C(F)(F)F)c3)cc21 (racemic)
Completion: 3.26

Prompt: Continue with CCOC1C(C#N)=C(N)Oc2ccc(-c3ccccc3)cc21 (racemic)
Completion: 2.87
